Reported melting point is given for each of the following compounds.

Qu. Read off the recorded melting point for CCOC(=O)C1=C(C)NC(C)=C(C(=O)OCC)C1c1ccccc1F [Example 2-27]
Ans. 151 to 152.5 °C

---
Qu. Read off the recorded melting point for CC1=C(C(=O)OC(C)(C)C)C(c2cc(Br)ccc2F)C(C(=O)OC(C)(C)C)=C(C)N1 [Example 48]
Ans. 173 to 174 °C

Qu. Read off the recorded melting point for CC1=C(C(=O)OC(C)(C)C)C(c2ccc(Br)cc2F)C(C(=O)OC(C)(C)C)=C(C)N1 [Example 44]
Ans. 187 to 188 °C

Qu. Read off the recorded melting point for CCOC(=O)C1=C(C)NC(C)=C(C(=O)OCC)C1c1cccc(Br)c1 [Example 24]
Ans. 125 to 126 °C
